- measurementTarget: Sodium-dependent serotonin transporter (Rattus norvegicus, UniProt P31652)
- Sequence (P31652 whole entry): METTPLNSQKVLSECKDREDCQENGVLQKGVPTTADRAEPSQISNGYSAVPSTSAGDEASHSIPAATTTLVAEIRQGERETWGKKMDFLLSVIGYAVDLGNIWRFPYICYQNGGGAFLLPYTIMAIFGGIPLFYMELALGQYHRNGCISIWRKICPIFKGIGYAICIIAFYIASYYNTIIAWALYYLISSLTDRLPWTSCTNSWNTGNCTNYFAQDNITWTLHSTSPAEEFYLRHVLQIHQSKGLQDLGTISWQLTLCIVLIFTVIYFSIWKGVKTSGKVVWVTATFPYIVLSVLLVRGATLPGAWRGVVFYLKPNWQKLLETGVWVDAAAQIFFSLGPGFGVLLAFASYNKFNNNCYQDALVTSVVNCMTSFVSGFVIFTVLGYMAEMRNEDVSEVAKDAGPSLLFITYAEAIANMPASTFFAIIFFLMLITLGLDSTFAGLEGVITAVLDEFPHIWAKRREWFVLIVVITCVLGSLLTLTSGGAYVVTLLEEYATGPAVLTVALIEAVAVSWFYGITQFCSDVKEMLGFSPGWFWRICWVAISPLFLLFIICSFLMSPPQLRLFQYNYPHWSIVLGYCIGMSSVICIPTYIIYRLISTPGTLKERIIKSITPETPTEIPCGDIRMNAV
reportedMetric: IC50 (µM)
Kindly provide the numeric value in µM only, without the unit symbol.

input: Give the value of IC50 reported for the following: Fc1ccc(C2CC(N3CCN(C/C=C/c4ccccc4)CC3)c3cc(F)ccc32)cc1 (stereo in doubt; 63)
output: 0.16

input: Give the value of IC50 reported for the following: Cl.Cl.Fc1ccc(C2CC(N3CCN(C/C=C/c4ccccc4)CC3)c3cc(F)ccc32)cc1 (stereo in doubt; 64)
output: 0.4

input: Give the value of IC50 reported for the following: CN1CCN(C2CC(c3ccc(F)cc3)c3ccc(F)cc32)CC1.Cl.Cl (single isomer, unassigned; (+))
output: 4

input: Give the value of IC50 reported for the following: Cl.Cl.OCCCCN1CCN(C2CC(c3ccc(F)cc3)c3ccc(F)cc32)CC1 (trans isomer)
output: 0.61

input: Give the value of IC50 reported for the following: Cl.Cl.OCCN1CCN(C2CC(c3ccc(F)cc3)c3ccc(F)cc32)CC1 (stereo unspecified)
output: 2.3

Further cases:
input: Give the value of IC50 reported for the following: OCCN1CCN(C2CC(c3ccc(F)cc3)c3ccc(C(F)(F)F)cc32)CC1 (trans isomer)
output: 7

###

- Species on record: Rattus norvegicus
reportedMetric: ED50

input: Give the value of ED50 reported for the following: OCC(O)CN1CCN(C2CC(c3ccc(F)cc3)c3ccc(F)cc32)CC1 (stereo not drawn)
output: >102 µM/kg

input: Give the value of ED50 reported for the following: CN1CCN(C2CC(c3ccc(F)cc3)c3ccc(F)cc32)CC1.Cl.Cl (stereo in doubt; 55)
output: >790 µM/kg

Further cases:
input: Give the value of ED50 reported for the following: OCCN1CCN(C2CC(c3ccc(F)cc3)c3ccc(C(F)(F)F)cc32)CC1 (trans isomer)
output: 0.27 µM/kg

###

- Tested on: Rattus norvegicus
- assayOverview: Tested orally in rats for antagonism of stereotypies induced by amphetamine
- Type: functional
- conditionParameters: Rattus norvegicus, po; read-out: ED50
Class boundaries, taken from values of ED50, are as follows: lower range: < 10 µmol/kg; middle range: ≥ 10 µmol/kg and < 30 µmol/kg; upper range: ≥ 30 µmol/kg

Examples from the recorded data:
input: # bin lookup: classify Cl.Cl.OCC(CO)N1CCN(C2CC(c3ccc(F)cc3)c3ccc(F)cc32)CC1 (trans isomer) by its ED50
output: middle range

input: # bin lookup: classify Cc1ccc2c(c1)C(N1CCN(CCO)CC1)CC2c1ccc(F)cc1 (trans isomer) by its ED50
output: middle range

input: # bin lookup: classify OCCN1CCN(C2CC(c3ccc(F)cc3)c3ccc(Cl)cc32)CC1 (trans isomer) by its ED50
output: lower range

input: # bin lookup: classify CC(C)c1ccc2c(c1)C(N1CCN(CCO)CC1)CC2c1ccc(F)cc1 (trans isomer) by its ED50
output: middle range

input: # bin lookup: classify Cl.Cl.Fc1ccc(C2CC(N3CCN(CC4CC4)CC3)c3cc(F)ccc32)cc1 (stereo in doubt; 59) by its ED50
output: upper range

input: # bin lookup: classify Cc1ccc([C@@H]2C[C@@H](N3CCN(CCO)CC3)c3cc(C(F)(F)F)ccc32)cc1 (relative stereo) by its ED50
output: upper range

input: # bin lookup: classify N#CCCN1CCN(C2CC(c3ccc(F)cc3)c3ccc(F)cc32)CC1 (trans isomer) by its ED50
output: upper range

input: # bin lookup: classify Cl.Cl.OCCCCN1CCN(C2CC(c3ccc(F)cc3)c3ccc(F)cc32)CC1 (trans isomer) by its ED50
output: lower range

Further cases:
input: # bin lookup: classify OCCN1CCN(C2CC(c3ccc(F)cc3)c3ccc(C(F)(F)F)cc32)CC1 (trans isomer) by its ED50
output: lower range

input: # bin lookup: classify CC(O)CN1CCN(C2CC(c3ccc(F)cc3)c3ccc(F)cc32)CC1.Cl.Cl (stereo in doubt; 71) by its ED50
output: middle range

input: # bin lookup: classify OCCN1CCN([C@@H]2C[C@@H](c3ccccc3)c3ccc(C(F)(F)F)cc32)CC1 (relative stereo) by its ED50
output: middle range

input: # bin lookup: classify OCCN1CCN(C2CC(c3ccc(F)cc3)c3cc(F)ccc32)CC1 (trans isomer) by its ED50
output: upper range

input: # bin lookup: classify Cl.Cl.OCC(O)CN1CCN(C2CC(c3ccc(F)cc3)c3ccc(F)cc32)CC1 (trans isomer) by its ED50
output: upper range

input: # bin lookup: classify CN1CCN(C2Cc3ccccc3Sc3ccc(Cl)cc32)CC1 (stereo unspecified) [CLOROTEPINE] by its ED50
output: lower range

input: # bin lookup: classify COc1ccc2c(c1)C(N1CCN(CCO)CC1)CC2c1ccc(F)cc1 (trans isomer) by its ED50
output: upper range

input: # bin lookup: classify CSc1ccc2c(c1)C(N1CCN(CCO)CC1)CC2c1ccc(F)cc1 (stereo unspecified) by its ED50
output: middle range
